Recorded values, source ChEMBL document CHEMBL3638614.

Molecular target: Orexin receptor type 2 (Homo sapiens, UniProt O43614)
Sequence (O43614 whole entry): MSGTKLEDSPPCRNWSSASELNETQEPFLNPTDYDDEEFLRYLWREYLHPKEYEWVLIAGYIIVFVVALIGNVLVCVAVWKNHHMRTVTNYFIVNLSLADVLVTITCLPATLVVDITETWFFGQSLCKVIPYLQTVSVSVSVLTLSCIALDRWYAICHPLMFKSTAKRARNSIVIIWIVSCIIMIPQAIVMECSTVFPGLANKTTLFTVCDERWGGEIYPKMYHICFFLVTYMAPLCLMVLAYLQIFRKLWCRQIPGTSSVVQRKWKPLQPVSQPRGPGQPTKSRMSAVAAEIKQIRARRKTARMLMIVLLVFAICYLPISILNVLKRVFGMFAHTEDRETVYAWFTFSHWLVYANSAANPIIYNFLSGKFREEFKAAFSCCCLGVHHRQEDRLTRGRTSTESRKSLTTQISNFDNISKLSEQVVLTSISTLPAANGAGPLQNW
measured.endpoint: Kd (µM)
Note: unit µM is implicit; provide only the numeric part.

Given item `O=C1N(Cc2cccc3ccccc23)CCCC12CCN(c1nc3ccccc3[nH]1)CC2` , the value recorded as its Kd is 0.755
